tgt: T1, human IL-4Rα HIS FLAG (in house HEK-EBNA derived) (human, biotinylated where used as the labelled partner in the DELFIA assay)
T1 construct: also called HuIL-4Rα; Human IL4-Rα/FLAG/HIS tag
T1 chain: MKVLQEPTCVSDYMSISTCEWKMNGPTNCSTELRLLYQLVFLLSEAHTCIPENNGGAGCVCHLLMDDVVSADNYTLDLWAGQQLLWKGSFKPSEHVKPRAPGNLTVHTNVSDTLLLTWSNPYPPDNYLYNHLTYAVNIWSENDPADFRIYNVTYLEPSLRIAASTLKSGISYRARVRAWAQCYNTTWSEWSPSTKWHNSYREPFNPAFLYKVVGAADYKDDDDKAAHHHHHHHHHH
method description: SPR (BIAcore 2000), IgG captured on Protein G', receptor as analyte, 1:1 Langmuir
property: kon

Inquiry: Give the value of kon reported for the following: Antibody 20 IgG (antibody, V domains shown) VH: QVQLVQSGAEVKKPGASVKVSCKASGYAFTSYYMHWARQAPGQGLEWMGIINPSGGSTSYAQKFQGRVTMTRDTSTSTVYMELSSLRSEDTAVYYCARGKYWMYDWGKGTLVTVSS VL: QSVLTQPPSVSAAPGQKVTISCSGGSSNIGNSYVSWYQQLPGTAPKLLIYDNNKRPSGIPDRFSGSKSGTSATLAITGLQTGDEADYYCGTWDTSTVWEWPFGTGTKLTVL
Reply text: 698000 M⁻¹ s⁻¹

Origin of measurements: patent US20180057596A1
